Molecular target: Tyrosine-protein kinase receptor UFO (Homo sapiens, UniProt P30530)
Sequence (P30530 whole entry): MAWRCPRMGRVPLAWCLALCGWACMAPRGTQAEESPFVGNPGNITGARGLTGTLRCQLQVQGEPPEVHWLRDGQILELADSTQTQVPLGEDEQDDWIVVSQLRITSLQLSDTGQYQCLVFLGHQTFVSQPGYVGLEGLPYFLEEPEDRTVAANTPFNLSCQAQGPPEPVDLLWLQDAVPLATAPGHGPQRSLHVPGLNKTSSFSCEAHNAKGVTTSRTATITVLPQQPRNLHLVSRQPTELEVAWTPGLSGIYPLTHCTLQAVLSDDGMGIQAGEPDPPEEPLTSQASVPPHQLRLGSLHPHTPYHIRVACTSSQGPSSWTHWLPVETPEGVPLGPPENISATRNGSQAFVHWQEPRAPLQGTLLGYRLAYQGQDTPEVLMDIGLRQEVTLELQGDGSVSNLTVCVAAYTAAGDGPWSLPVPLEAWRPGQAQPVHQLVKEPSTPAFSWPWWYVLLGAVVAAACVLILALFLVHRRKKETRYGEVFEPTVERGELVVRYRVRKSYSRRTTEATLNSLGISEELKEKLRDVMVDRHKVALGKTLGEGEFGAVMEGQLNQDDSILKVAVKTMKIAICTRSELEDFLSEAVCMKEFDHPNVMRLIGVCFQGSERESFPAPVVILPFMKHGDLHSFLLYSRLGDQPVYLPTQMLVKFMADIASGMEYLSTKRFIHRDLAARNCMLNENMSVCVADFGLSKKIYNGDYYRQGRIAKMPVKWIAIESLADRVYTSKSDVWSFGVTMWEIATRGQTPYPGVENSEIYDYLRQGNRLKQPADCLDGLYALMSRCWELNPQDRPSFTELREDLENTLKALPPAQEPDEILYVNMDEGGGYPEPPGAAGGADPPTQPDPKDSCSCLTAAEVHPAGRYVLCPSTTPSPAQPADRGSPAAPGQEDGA
Each record here notes measured IC50.

{"molecule": "Cc1c(O)c(O)c(O)c(C=O)c1-c1cc2c(C=O)c(C)c(O)c(O)c2o1", "system-tested": "Tyrosine-protein kinase receptor UFO (Homo sapiens, UniProt P30530)", "uom": "nM", "IC50": 220}
{"molecule": "O=c1c(O)c(-c2ccc(O)c(O)c2)oc2cc(O)cc(O)c12", "system-tested": "Tyrosine-protein kinase receptor UFO (Homo sapiens, UniProt P30530)", "uom": "nM", "IC50": 960}
{"molecule": "Cc1c(O)c(O)c2c(c1C=O)[C@@H]1O[C@H](O2)c2c(C)c(O)c(O)c(O)c2C1=O (racemic)", "system-tested": "Tyrosine-protein kinase receptor UFO (Homo sapiens, UniProt P30530)", "uom": "nM", "IC50": 160}

---

pIC50: −log10 of the molar value.
UniProtKB Q05397 measurements of pIC50, listed per entry.
Sequence (Q05397 whole entry): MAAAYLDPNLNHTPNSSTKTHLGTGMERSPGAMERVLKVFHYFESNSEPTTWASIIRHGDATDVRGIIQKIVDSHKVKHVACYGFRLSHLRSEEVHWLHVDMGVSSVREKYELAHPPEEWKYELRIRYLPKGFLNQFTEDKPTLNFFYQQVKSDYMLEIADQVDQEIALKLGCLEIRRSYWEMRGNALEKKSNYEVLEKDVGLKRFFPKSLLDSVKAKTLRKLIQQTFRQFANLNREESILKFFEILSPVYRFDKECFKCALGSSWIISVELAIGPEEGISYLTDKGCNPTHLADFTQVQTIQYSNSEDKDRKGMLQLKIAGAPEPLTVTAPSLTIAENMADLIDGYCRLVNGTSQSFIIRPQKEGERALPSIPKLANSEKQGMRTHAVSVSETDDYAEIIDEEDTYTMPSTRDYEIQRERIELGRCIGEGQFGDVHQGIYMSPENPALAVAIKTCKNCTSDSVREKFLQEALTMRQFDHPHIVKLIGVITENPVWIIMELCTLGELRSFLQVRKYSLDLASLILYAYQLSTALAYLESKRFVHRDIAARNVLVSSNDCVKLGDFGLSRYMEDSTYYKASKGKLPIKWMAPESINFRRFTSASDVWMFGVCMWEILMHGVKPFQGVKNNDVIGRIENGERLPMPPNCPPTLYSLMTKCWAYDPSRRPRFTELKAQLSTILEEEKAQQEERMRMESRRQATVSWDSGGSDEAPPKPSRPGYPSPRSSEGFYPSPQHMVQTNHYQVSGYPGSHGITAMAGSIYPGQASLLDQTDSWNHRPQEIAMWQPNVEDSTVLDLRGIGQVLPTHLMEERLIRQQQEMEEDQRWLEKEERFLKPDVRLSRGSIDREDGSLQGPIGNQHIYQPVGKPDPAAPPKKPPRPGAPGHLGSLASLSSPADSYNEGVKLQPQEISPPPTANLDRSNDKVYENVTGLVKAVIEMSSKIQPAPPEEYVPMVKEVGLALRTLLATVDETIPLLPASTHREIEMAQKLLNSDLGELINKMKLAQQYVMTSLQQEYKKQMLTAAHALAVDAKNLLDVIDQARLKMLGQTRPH

{"compound": "Cc1c(O)c(O)c(O)c(C=O)c1-c1cc2c(C=O)c(C)c(O)c(O)c2o1", "pIC50": 6.10}
{"compound": "O=c1c(O)c(-c2ccc(O)c(O)c2)oc2cc(O)cc(O)c12 [QUERCETIN]", "pIC50": 5.92}
